Target: TANK-2 enzyme (Homo sapiens, UniProt Q9H2K2)
Construct: made in house
Sequence (Q9H2K2 1-1166): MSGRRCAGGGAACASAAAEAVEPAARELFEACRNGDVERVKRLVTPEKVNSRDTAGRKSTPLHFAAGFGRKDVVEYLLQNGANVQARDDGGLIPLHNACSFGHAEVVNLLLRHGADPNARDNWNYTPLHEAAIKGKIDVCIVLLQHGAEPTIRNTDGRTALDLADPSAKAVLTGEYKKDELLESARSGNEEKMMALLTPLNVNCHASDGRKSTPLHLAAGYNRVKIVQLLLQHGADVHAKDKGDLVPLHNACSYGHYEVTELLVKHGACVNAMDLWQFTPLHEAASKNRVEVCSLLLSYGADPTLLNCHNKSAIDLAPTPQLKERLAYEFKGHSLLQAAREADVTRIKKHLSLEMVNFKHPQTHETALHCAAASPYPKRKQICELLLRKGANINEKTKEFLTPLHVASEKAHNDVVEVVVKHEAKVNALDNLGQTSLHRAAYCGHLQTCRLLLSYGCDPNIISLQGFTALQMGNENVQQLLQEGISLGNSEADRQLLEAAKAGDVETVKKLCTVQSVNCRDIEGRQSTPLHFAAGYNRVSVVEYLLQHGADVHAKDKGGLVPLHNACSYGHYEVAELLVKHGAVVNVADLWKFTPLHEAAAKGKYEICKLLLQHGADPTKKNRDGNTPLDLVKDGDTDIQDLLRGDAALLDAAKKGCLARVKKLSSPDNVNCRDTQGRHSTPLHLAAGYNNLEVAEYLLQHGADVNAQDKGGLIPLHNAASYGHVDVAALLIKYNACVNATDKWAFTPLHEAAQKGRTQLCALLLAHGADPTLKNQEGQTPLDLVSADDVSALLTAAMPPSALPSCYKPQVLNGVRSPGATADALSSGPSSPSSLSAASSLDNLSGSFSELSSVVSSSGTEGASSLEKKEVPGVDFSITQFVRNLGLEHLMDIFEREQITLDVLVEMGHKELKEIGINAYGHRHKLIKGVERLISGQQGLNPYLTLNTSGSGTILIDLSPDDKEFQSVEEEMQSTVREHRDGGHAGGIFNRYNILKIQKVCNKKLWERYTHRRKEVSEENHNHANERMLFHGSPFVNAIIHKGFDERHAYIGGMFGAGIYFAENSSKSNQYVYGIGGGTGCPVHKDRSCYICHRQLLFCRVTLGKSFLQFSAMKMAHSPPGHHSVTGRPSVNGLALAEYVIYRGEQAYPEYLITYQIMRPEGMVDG
Experiment: In vitro scintillation proximity assay (SPA) for TANK-2 inhibitory activity
Format: biochemical
Settings: auto-poly(ADP-ribosyl)ation, [3H]-NAD+; 96-well results if available, otherwise 384-well; read-out: in vitro SPA assay TANK-2 pIC50 (converted)
quantity_kind: IC50

>  <compound>
O=c1[nH]c(=O)n(C2CCNCC2)c2ccccc12

>  <IC50>
> 10 µM

$$$$

Ask: Can you look up the measured IC50 of O=C(c1ccc(F)cc1)C1CCN(CCn2c(=O)[nH]c(=O)c3ccccc32)CC1 for me?
Result: 7.19 µM

Ask: Can you look up the measured IC50 of O=c1[nH]c(=O)n(CCCN2CCC(O)(c3ccc(Cl)cc3)CC2)c2ccccc12 for me?
Result: > 10 µM

Ask: Can you look up the measured IC50 of O=c1[nH]c(=O)n(C2CCN(CC(O)C3CCc4ccccc4O3)CC2)c2ccccc12 (stereo in doubt) for me?
Result: > 10 µM

Ask: Can you look up the measured IC50 of O=c1[nH]c(=O)n(CCN2CCC(O)(c3ccc(Cl)cc3)CC2)c2ccccc12 for me?
Result: 1.38 µM

Ask: Can you look up the measured IC50 of O=C(CCCN1CCC(n2c(=O)[nH]c(=O)c3ccccc32)CC1)c1ccc(F)cc1 for me?
Result: > 10 µM

Ask: Can you look up the measured IC50 of O=c1[nH]c(=O)n(C2CCN(CCCn3c(=O)[nH]c4ccccc43)CC2)c2ccccc12 for me?
Result: 7.57 µM

Ask: Can you look up the measured IC50 of O=C(c1ccc(F)cc1)C1CCN(CCCn2c(=O)[nH]c(=O)c3ccccc32)CC1 for me?
Result: > 10 µM
